# Tested on: Staphylococcus aureus
# assay-procedure: Antibacterial activity against Staphylococcus aureus
# Format: functional
recorded-metric: MIC (µg/mL)
The response must be a number in µg/mL with no trailing unit.

Look up and state reported MIC for `Cc1ccc(Nc2nc(O)c3c[nH]nc3n2)cc1Br`
8

Look up and state reported MIC for `Cc1ccc(Nc2nc(O)c3c[nH]nc3n2)cc1Cl`
14

Look up and state reported MIC for `CCc1cc(Nc2nc(O)c3c[nH]nc3n2)ccc1C`
27

Look up and state reported MIC for `Cc1ccc(Nc2nc(O)c3c[nH]nc3n2)cc1I`
9

###

For each of the compounds below, state its MIC.
# Tested on: Enterococcus faecium
# assay-procedure: Antibacterial activity against Enterococcus faecium
# Type: functional
The response must be a number in µg/mL with no trailing unit.

Look up and state reported MIC for `Cc1ccc(Nc2nc(O)c3c[nH]nc3n2)cc1I`
18

Look up and state reported MIC for `Cc1ccc(Nc2nc(O)c3c[nH]nc3n2)cc1Cl`
28

Look up and state reported MIC for `Cc1ccc(Nc2nc(O)c3c[nH]nc3n2)cc1Br`
16

Look up and state reported MIC for `CCc1cc(Nc2nc(O)c3c[nH]nc3n2)ccc1C`
13
